System: SW1417 (Colorectal Carcinoma)
Assay: combination Emax (second highest fraction inhibited in the dose matrix, 72 h); higher = more inhibition; extreme values may be limits of the assay
# Lookup of reported combination Emax keyed by entry
Number, no unit, nothing else.

C[C@@H](Nc1cc(F)cc(F)c1)c1cc(C(=O)N(C)C)cc2c(=O)cc(N3CCOCC3)oc12 [AZD8186] + CC(=O)c1c(C)c2cnc(Nc3ccc(N4CCNCC4)cn3)nc2n(C2CCCC2)c1=O [Palbociclib] (first compound max 10 µM, 7x7, partner max 10 µM): 0.395

Exercise: Please give the measured combination Emax for this compound: N#Cc1cnc(Nc2cc(NC[C@H]3CNCCO3)c(C(F)(F)F)cn2)cn1 [SRA737] + O=c1[nH]cc(F)c(=O)[nH]1 [5-Fluorouracil] (first compound max 10 µM, 7x7, partner max 20 µM)
Solution: 0.238

Exercise: Please give the measured combination Emax for this compound: Cc1cc2ncnn2cc1Nc1ncc2c(n1)n(C1CCOCC1)c(=O)n2C [AZD7648] + COc1cc([C@@H]2c3cc4c(cc3[C@@H](O[C@@H]3O[C@@H]5CO[C@@H](C)O[C@H]5[C@H](O)[C@H]3O)[C@H]3COC(=O)[C@H]23)OCO4)cc(OC)c1O [Etoposide] (first compound max 10 µM, 7x7, partner max 10 µM)
Solution: 0.382

Exercise: Please give the measured combination Emax for this compound: COc1nnc2ccc(N3CCC(c4ccc(OCCN5CCN(C)C(=O)[C@H]5C)cc4)CC3)nn12 [AZD5153] + CC1(C)CCC(CN2CCN(c3ccc(C(=O)NS(=O)(=O)c4ccc(NCC5CCOCC5)c([N+](=O)[O-])c4)c(Oc4cnc5[nH]ccc5c4)c3)CC2)=C(c2ccc(Cl)cc2)C1 [Venetoclax] (first compound max 1 µM, 7x7, partner max 1 µM)
Solution: 0.463

###

Test system: DND-41 (T-Lymphoblastic Leukemia)
Test: Bliss excess, mean over the matrix (fraction); higher = more synergy
MEASURED QUANTITY: Bliss excess
Number, no unit, nothing else.

Previously resolved entries follow.
NC1(C(=O)N[C@@H](CCO)c2ccc(Cl)cc2)CCN(c2ncnc3[nH]ccc23)CC1 [Capivasertib] + CC(=O)c1c(C)c2cnc(Nc3ccc(N4CCNCC4)cn3)nc2n(C2CCCC2)c1=O [Palbociclib] (first compound max 10 µM, 7x7, partner max 10 µM): -0.0146
Cc1c2c(nn1C)CSCc1cc(n(C)n1)CSc1cc(c3ccccc3c1)OCCCc1c(C(=O)O)n(C)c3c-2c(Cl)ccc13 [AZD5991] + C1CN(CCC1(C(=O)N[C@@H](CCO)C2=CC=C(C=C2)Cl)N)C3=NC=NC4=C3C=CN4 [Capivasertib] (first compound max 1 µM, 7x7, partner max 3 µM): 0.0038

We next turn to a different compound, shown below.
Exercise: # value lookup — system DND-41 (T-Lymphoblastic Leukemia), readout Bliss excess, item CC(=O)c1c(C)c2cnc(Nc3ccc(N4CCNCC4)cn3)nc2n(C2CCCC2)c1=O [Palbociclib] + CC1(C)CCC(CN2CCN(c3ccc(C(=O)NS(=O)(=O)c4ccc(NCC5CCOCC5)c([N+](=O)[O-])c4)c(Oc4cnc5[nH]ccc5c4)c3)CC2)=C(c2ccc(Cl)cc2)C1 [Venetoclax] (first compound max 10 µM, 7x7, partner max 1 µM)
Solution: -0.0292

###

# Lookup of reported Bliss excess keyed by entry
System: MFM-223 (Breast Carcinoma)
Assay: Bliss excess, mean over the matrix (fraction); higher = more synergy

Previously resolved entries follow.
Cc1c2c(nn1C)CSCc1cc(n(C)n1)CSc1cc(c3ccccc3c1)OCCCc1c(C(=O)O)n(C)c3c-2c(Cl)ccc13 [AZD5991] + C[C@@H]1COCCN1C2=NC(=NC(=C2)C3(CC3)[S@](=N)(=O)C)C4=C5C=CNC5=NC=C4 [AZD6738] (first compound max 1 µM, 7x7, partner max 10 µM): 0.0601
CCN(CCO)CCCOc1ccc2c(Nc3cc(CC(=O)Nc4cccc(F)c4)[nH]n3)ncnc2c1 [AZD2811] + O=C(c1cc(Cc2n[nH]c(=O)c3ccccc23)ccc1F)N1CCN(C(=O)C2CC2)CC1 [Olaparib] (first compound max 1 µM, 7x7, partner max 10 µM): 0.0058
NC1(C(=O)N[C@@H](CCO)c2ccc(Cl)cc2)CCN(c2ncnc3[nH]ccc23)CC1 [Capivasertib] + CC(C)n1c(=O)n(C)c2cnc3cc(F)c(-c4ccc(OCCCN5CCCCC5)nc4)cc3c21 [AZD1390] (first compound max 10 µM, 7x7, partner max 0.3 µM): -0.0098
CC(=O)c1c(C)c2cnc(Nc3ccc(N4CCNCC4)cn3)nc2n(C2CCCC2)c1=O [Palbociclib] + Cc1c2c(nn1C)CSCc1cc(n(C)n1)CSc1cc(c3ccccc3c1)OCCCc1c(C(=O)O)n(C)c3c-2c(Cl)ccc13 [AZD5991] (first compound max 10 µM, 7x7, partner max 1 µM): -0.0784

Exercise: Please give the measured Bliss excess for this compound: CCN(CCO)CCCOc1ccc2c(Nc3cc(CC(=O)Nc4cccc(F)c4)[nH]n3)ncnc2c1 [AZD2811] + C[C@@H]1COCCN1C2=NC(=NC(=C2)C3(CC3)[S@](=N)(=O)C)C4=C5C=CNC5=NC=C4 [AZD6738] (first compound max 1 µM, 7x7, partner max 10 µM)
Solution: -0.0251

Exercise: Please give the measured Bliss excess for this compound: CN(CCO)CC[C@H](CSc1ccccc1)Nc1ccc(S(=O)(=O)NC(=O)c2ccc(N3CCC([C@@H](O)c4ccccc4-c4ccc(Cl)cc4)CC3)cc2)cc1S(=O)(=O)C(F)(F)F [AZD4320] + C[C@@H]1COCCN1C2=NC(=NC(=C2)C3(CC3)[S@](=N)(=O)C)C4=C5C=CNC5=NC=C4 [AZD6738] (first compound max 1 µM, 7x7, partner max 10 µM)
Solution: -0.0367

Exercise: Please give the measured Bliss excess for this compound: COc1nnc2ccc(N3CCC(c4ccc(OCCN5CCN(C)C(=O)[C@H]5C)cc4)CC3)nn12 [AZD5153] + CCN(CCO)CCCOc1ccc2c(Nc3cc(CC(=O)Nc4cccc(F)c4)[nH]n3)ncnc2c1 [AZD2811] (first compound max 1 µM, 7x7, partner max 1 µM)
Solution: -0.0622

###

Tested on: KYSE-180 (Esophageal Squamous Cell Carcinoma)
Experiment: combination Emax (second highest fraction inhibited in the dose matrix, 72 h); higher = more inhibition; extreme values may be limits of the assay
MEASURED QUANTITY: combination Emax
Number, no unit, nothing else.

CCc1c2c(nc3ccc(O)cc13)-c1cc3c(c(=O)n1C2)COC(=O)[C@]3(O)CC [SN-38] + O=C(c1cc(Cc2n[nH]c(=O)c3ccccc23)ccc1F)N1CCN(C(=O)C2CC2)CC1 [Olaparib] (first compound max 0.3 µM, 7x7, partner max 10 µM): 0.527
Cc1c2c(nn1C)CSCc1cc(n(C)n1)CSc1cc(c3ccccc3c1)OCCCc1c(C(=O)O)n(C)c3c-2c(Cl)ccc13 [AZD5991] + CC1(C)CCC(CN2CCN(c3ccc(C(=O)NS(=O)(=O)c4ccc(NCC5CCOCC5)c([N+](=O)[O-])c4)c(Oc4cnc5[nH]ccc5c4)c3)CC2)=C(c2ccc(Cl)cc2)C1 [Venetoclax] (first compound max 1 µM, 7x7, partner max 1 µM): 0.922

We next turn to a different molecule, shown below.
Exercise: Please give the measured combination Emax for this molecule: CC1(C)CCC(CN2CCN(c3ccc(C(=O)NS(=O)(=O)c4ccc(NCC5CCOCC5)c([N+](=O)[O-])c4)c(Oc4cnc5[nH]ccc5c4)c3)CC2)=C(c2ccc(Cl)cc2)C1 [Venetoclax] + CN(C)CCCOc1ccc(-c2ccc3ncc4c(c3c2)n(C2CCOCC2)c(=O)n4C)cn1 [AZD0156] (first compound max 1 µM, 7x7, partner max 1 µM)
Solution: 0.155

###

Tested on: DND-41 (T-Lymphoblastic Leukemia)
Experiment: combination Emax (second highest fraction inhibited in the dose matrix, 72 h); higher = more inhibition; extreme values may be limits of the assay
# Lookup of reported combination Emax keyed by entry
Number, no unit, nothing else.

Previously resolved entries follow.
C=CCn1c(=O)c2cnc(Nc3ccc(N4CCN(C)CC4)cc3)nc2n1-c1cccc(C(C)(C)O)n1 [AZD1775] + O=C(c1cc(Cc2n[nH]c(=O)c3ccccc23)ccc1F)N1CCN(C(=O)C2CC2)CC1 [Olaparib] (first compound max 1 µM, partner max 10 µM): 0.878
CN(CCO)CC[C@H](CSc1ccccc1)Nc1ccc(S(=O)(=O)NC(=O)c2ccc(N3CCC([C@@H](O)c4ccccc4-c4ccc(Cl)cc4)CC3)cc2)cc1S(=O)(=O)C(F)(F)F [AZD4320] + CCN(CCO)CCCOc1ccc2c(Nc3cc(CC(=O)Nc4cccc(F)c4)[nH]n3)ncnc2c1 [AZD2811] (first compound max 1 µM, 7x7, partner max 1 µM): 1
C=CCn1c(=O)c2cnc(Nc3ccc(N4CCN(C)CC4)cc3)nc2n1-c1cccc(C(C)(C)O)n1 [AZD1775] + C1CN(CCC1(C(=O)N[C@@H](CCO)C2=CC=C(C=C2)Cl)N)C3=NC=NC4=C3C=CN4 [Capivasertib] (first compound max 3 µM, partner max 3 µM): 0.899

We next turn to a different compound, shown below.
Exercise: Please give the measured combination Emax for this compound: Cc1c2c(nn1C)CSCc1cc(n(C)n1)CSc1cc(c3ccccc3c1)OCCCc1c(C(=O)O)n(C)c3c-2c(Cl)ccc13 [AZD5991] + C[C@@H]1COCCN1C2=NC(=NC(=C2)C3(CC3)[S@](=N)(=O)C)C4=C5C=CNC5=NC=C4 [AZD6738] (first compound max 1 µM, 7x7, partner max 10 µM)
Solution: 0.9
